System: Mus musculus
Test: Antiosteoporosis activity against ovariectomized ICR mouse assessed as dry femur weight at 110.3 nmol/kg, po after 30 mins
Assay type: functional
Numbered stars: 1 amine (or outer) side, 2 acyl side, 3 side chain; on linkers, the order of the positions; unused ones are H or OH. Bridge positions count the residues as written; N and C are the ends. Peptide text beside a SMILES is read from it. I, II: the chains in the order shown. Estradiol(3-OCH2CO,17-OSuc) = C[C@]12CC[C@@H]3c4ccc(OCC(=O)[*:1])cc4CC[C@H]3[C@@H]1CC[C@@H]2OC(=O)CCC(=O)[*:2]
quantity: Activity
Kindly write the number and append the unit.

C[C@]12CC[C@@H]3c4ccc(OCC(=O)N[C@@H](CCCNC(=N)N)C(=O)NCC(=O)N[C@@H](CC(=O)O)C(=O)N[C@@H](CO)C(=O)O)cc4CC[C@H]3[C@@H]1CC[C@@H]2OC(=O)CCC(=O)N[C@@H](CCCNC(=N)N)C(=O)NCC(=O)N[C@@H](CC(=O)O)C(=O)N[C@@H](CO)C(=O)O (I: RGDS-OH / II: RGDS-OH; linker I:N-II:N via Estradiol(3-OCH2CO,17-OSuc))    55.22 mg

# batch size: 2; output Activity per entry
1. C[C@]12CC[C@@H]3c4ccc(O)cc4CC[C@H]3[C@@H]1CCC2=O
2. C[C@]12CC[C@@H]3c4ccc(OCC(=O)N[C@@H](CCCNC(=N)N)C(=O)NCC(=O)N[C@@H](CC(=O)O)C(=O)N[C@@H](Cc5ccccc5)C(=O)O)cc4CC[C@H]3[C@@H]1CC[C@@H]2OC(=O)CCC(=O)N[C@@H](CCCNC(=N)N)C(=O)NCC(=O)N[C@@H](CC(=O)O)C(=O)N[C@@H](Cc1ccccc1)C(=O)O (I: RGDF-OH / II: RGDF-OH; linker I:N-II:N via Estradiol(3-OCH2CO,17-OSuc))

Ans:
53.03 mg
55.46 mg

====

Test system: Mus musculus
Assay: Antiosteoporosis activity against ovariectomized ICR mouse assessed as serum ALP activity at 110.3 nmol/kg, po after 30 mins
Type: functional
Peptide text beside a SMILES is read from it. * marks the point of attachment. Succinyl(O17-estradiol) = C[C@]12CC[C@@H]3c4ccc(O)cc4CC[C@H]3[C@@H]1CC[C@@H]2OC(=O)CCC(=O)*; X1 = C[C@]12CC[C@@H]3c4ccc(OCC(=O)*)cc4CC[C@H]3[C@@H]1CCC2=O
Would you please tag the item t when its Activity is 20 U/L or above, and f when it is below?

C[C@]12CC[C@@H]3c4ccc(O)cc4CC[C@H]3[C@@H]1CC[C@@H]2OC(=O)CCC(=O)N[C@@H](CCCNC(=N)N)C(=O)NCC(=O)N[C@@H](CC(=O)O)C(=O)N[C@@H](CO)C(=O)O ({Succinyl(O17-estradiol)}-RGDS-OH)    t

Q: Hi team, for C[C@]12CC[C@@H]3c4ccc(OCC(=O)N[C@@H](CCCNC(=N)N)C(=O)NCC(=O)N[C@@H](CC(=O)O)C(=O)N[C@@H](CO)C(=O)O)cc4CC[C@H]3[C@@H]1CCC2=O (X1-RGDS-OH) , is the recorded Activity at or above 20 U/L?
Ans: f

Q: Hi team, for C[C@]12CC[C@@H]3c4ccc(O)cc4CC[C@H]3[C@@H]1CCC2=O , is the recorded Activity at or above 20 U/L?
Ans: t

Q: Hi team, for C[C@]12CC[C@@H]3c4ccc(O)cc4CC[C@H]3[C@@H]1CC[C@@H]2O , is the recorded Activity at or above 20 U/L?
Ans: t

====

Could you please report measured Activity for the items listed next?
System: Mus musculus
Assay: Antiosteoporosis activity against ovariectomized ICR mouse assessed as dry femur weight at 110.3 nmol/kg, po after 30 mins
Assay type: functional
Numbered stars: 1 amine (or outer) side, 2 acyl side, 3 side chain; on linkers, the order of the positions; unused ones are H or OH. Bridge positions count the residues as written; N and C are the ends. Peptide text beside a SMILES is read from it. I, II: the chains in the order shown. * marks the point of attachment. Estradiol(3-OCH2CO,17-OSuc) = C[C@]12CC[C@@H]3c4ccc(OCC(=O)[*:1])cc4CC[C@H]3[C@@H]1CC[C@@H]2OC(=O)CCC(=O)[*:2]; X1 = C[C@]12CC[C@@H]3c4ccc(OCC(=O)*)cc4CC[C@H]3[C@@H]1CCC2=O
Answers are plain numbers, in mg.

C[C@]12CC[C@@H]3c4ccc(OCC(=O)N[C@@H](CCCNC(=N)N)C(=O)NCC(=O)N[C@@H](CC(=O)O)C(=O)N[C@@H](CO)C(=O)O)cc4CC[C@H]3[C@@H]1CCC2=O (X1-RGDS-OH)    54.29
C[C@]12CC[C@@H]3c4ccc(OCC(=O)N[C@@H](CCCNC(=N)N)C(=O)NCC(=O)N[C@@H](CC(=O)O)C(=O)N[C@@H](Cc5ccccc5)C(=O)O)cc4CC[C@H]3[C@@H]1CCC2=O (X1-RGDF-OH)    53.99
CC(C)[C@H](NC(=O)[C@H](CC(=O)O)NC(=O)CNC(=O)[C@H](CCCNC(=N)N)NC(=O)[C@@H](NC(=O)[C@H](CC(=O)O)NC(=O)CNC(=O)[C@H](CCCNC(=N)N)NC(=O)COc1ccc2c(c1)CC[C@@H]1[C@@H]2CC[C@]2(C)C(=O)CC[C@@H]12)C(C)C)C(=O)O (X1-RGDVRGDV-OH)    55.39

Q: Tell me its Activity given CC(C)[C@H](NC(=O)[C@H](CC(=O)O)NC(=O)CNC(=O)[C@H](CCCNC(=N)N)NC(=O)CCC(=O)O[C@H]1CC[C@H]2[C@@H]3CCc4cc(OCC(=O)N[C@@H](CCCNC(=N)N)C(=O)NCC(=O)N[C@@H](CC(=O)O)C(=O)N[C@H](C(=O)O)C(C)C)ccc4[C@H]3CC[C@]12C)C(=O)O (I: RGDV-OH / II: RGDV-OH; linker I:N-II:N via Estradiol(3-OCH2CO,17-OSuc)) as the entry.
Ans: 56.46

====

Could you please report measured Activity for the items listed next?
System: Mus musculus
Assay: Toxicity in ovariectomized ICR mouse assessed as tail bleeding time at 110.3 nmol/kg, po for 30 mins
Format: organism-based
Settings: in vivo, 0.5 h
Peptide text beside a SMILES is read from it. * marks the point of attachment. Succinyl(O17-estradiol) = C[C@]12CC[C@@H]3c4ccc(O)cc4CC[C@H]3[C@@H]1CC[C@@H]2OC(=O)CCC(=O)*; Acetyl(estradiol-3-yloxy) = C[C@]12CC[C@@H]3c4ccc(OCC(=O)*)cc4CC[C@H]3[C@@H]1CC[C@@H]2O
Give bare numbers, in s.

C[C@]12CC[C@@H]3c4ccc(O)cc4CC[C@H]3[C@@H]1CC[C@@H]2OC(=O)CCC(=O)N[C@@H](CCCNC(=N)N)C(=O)NCC(=O)N[C@@H](CC(=O)O)C(=O)N[C@@H](Cc1ccccc1)C(=O)O ({Succinyl(O17-estradiol)}-RGDF-OH)    576

Could you now consider this next compound?
Q: Tell me its Activity given C[C@]12CC[C@@H]3c4ccc(OCC(=O)N[C@@H](CCCNC(=N)N)C(=O)NCC(=O)N[C@@H](CC(=O)O)C(=O)N[C@@H](Cc5ccccc5)C(=O)O)cc4CC[C@H]3[C@@H]1CC[C@@H]2O ({Acetyl(estradiol-3-yloxy)}-RGDF-OH) as the entry.
Ans: 557

====

Could you please report measured Activity for the items listed next?
System: Mus musculus
Test: Toxicity in ovariectomized ICR mouse assessed as change in uterine weight at 110.3 nmol/kg, po after 4 weeks
Assay type: organism-based
Conditions: in vivo, 672 h
Numbered stars: 1 amine (or outer) side, 2 acyl side, 3 side chain; on linkers, the order of the positions; unused ones are H or OH. Bridge positions count the residues as written; N and C are the ends. Peptide text beside a SMILES is read from it. I, II: the chains in the order shown. * marks the point of attachment. Estradiol(3-OCH2CO,17-OSuc) = C[C@]12CC[C@@H]3c4ccc(OCC(=O)[*:1])cc4CC[C@H]3[C@@H]1CC[C@@H]2OC(=O)CCC(=O)[*:2]; Succinyl(O17-estradiol) = C[C@]12CC[C@@H]3c4ccc(O)cc4CC[C@H]3[C@@H]1CC[C@@H]2OC(=O)CCC(=O)*; X1 = C[C@]12CC[C@@H]3c4ccc(OCC(=O)*)cc4CC[C@H]3[C@@H]1CCC2=O
Answers are plain numbers, in g.

Some solved entries appear below for comparison.
C[C@]12CC[C@@H]3c4ccc(O)cc4CC[C@H]3[C@@H]1CC[C@@H]2OC(=O)CCC(=O)N[C@@H](CCCNC(=N)N)C(=O)NCC(=O)N[C@@H](CC(=O)O)C(=O)N[C@@H](Cc1ccccc1)C(=O)O ({Succinyl(O17-estradiol)}-RGDF-OH)    0.06
CC(C)[C@H](NC(=O)[C@H](CC(=O)O)NC(=O)CNC(=O)[C@H](CCCNC(=N)N)NC(=O)CCC(=O)O[C@H]1CC[C@H]2[C@@H]3CCc4cc(O)ccc4[C@H]3CC[C@]12C)C(=O)O ({Succinyl(O17-estradiol)}-RGDV-OH)    0.064
C[C@]12CC[C@@H]3c4ccc(OCC(=O)N[C@@H](CCCNC(=N)N)C(=O)NCC(=O)N[C@@H](CC(=O)O)C(=O)N[C@@H](Cc5ccccc5)C(=O)N[C@@H](CCCNC(=N)N)C(=O)NCC(=O)N[C@@H](CC(=O)O)C(=O)N[C@@H](Cc5ccccc5)C(=O)O)cc4CC[C@H]3[C@@H]1CCC2=O (X1-RGDFRGDF-OH)    0.051
C[C@]12CC[C@@H]3c4ccc(OCC(=O)N[C@@H](CCCNC(=N)N)C(=O)NCC(=O)N[C@@H](CC(=O)O)C(=O)N[C@@H](CO)C(=O)N[C@@H](CCCNC(=N)N)C(=O)NCC(=O)N[C@@H](CC(=O)O)C(=O)N[C@@H](CO)C(=O)O)cc4CC[C@H]3[C@@H]1CCC2=O (X1-RGDSRGDS-OH)    0.058
C[C@]12CC[C@@H]3c4ccc(OCC(=O)N[C@@H](CCCNC(=N)N)C(=O)NCC(=O)N[C@@H](CC(=O)O)C(=O)N[C@@H](CO)C(=O)O)cc4CC[C@H]3[C@@H]1CCC2=O (X1-RGDS-OH)    0.069

# batch size: 2; output Activity per entry
1. C[C@]12CC[C@@H]3c4ccc(O)cc4CC[C@H]3[C@@H]1CC[C@@H]2O
2. C[C@]12CC[C@@H]3c4ccc(OCC(=O)N[C@@H](CCCNC(=N)N)C(=O)NCC(=O)N[C@@H](CC(=O)O)C(=O)N[C@@H](Cc5ccccc5)C(=O)O)cc4CC[C@H]3[C@@H]1CC[C@@H]2OC(=O)CCC(=O)N[C@@H](CCCNC(=N)N)C(=O)NCC(=O)N[C@@H](CC(=O)O)C(=O)N[C@@H](Cc1ccccc1)C(=O)O (I: RGDF-OH / II: RGDF-OH; linker I:N-II:N via Estradiol(3-OCH2CO,17-OSuc))

Ans:
1. 0.108
2. 0.05

Reference source for all entries: ChEMBL document CHEMBL1151896
